- Test system: Pseudomonas aeruginosa
- assay_notes: Antimicrobial activity against extended spectrum beta-lactamase CTX-M-2-producing Pseudomonas aeruginosa isolate P6208 by Etest
- Assay type: functional
Property: MIC; scope: individual compounds
Just the number please, in µg/mL, no unit attached.

Returns the measured MIC for the input compound. Input: CC(C)(O/N=C(\C(=O)N[C@@H]1C(=O)N2C(C(=O)[O-])=C(C[n+]3ccccc3)CS[C@H]12)c1csc(N)n1)C(=O)O
2

Pending compound:
Returns the measured MIC for the input compound. Input: C[C@@H](O)[C@H]1C(=O)N2C(C(=O)O)=C(SCCNC=N)C[C@H]12 [IMIPENEM ANHYDROUS]
1
